# TARGET_OR_TEST_SYSTEM: S1P1 (Homo sapiens (Human), UniProt P21453)
# Sequence (P21453 whole entry): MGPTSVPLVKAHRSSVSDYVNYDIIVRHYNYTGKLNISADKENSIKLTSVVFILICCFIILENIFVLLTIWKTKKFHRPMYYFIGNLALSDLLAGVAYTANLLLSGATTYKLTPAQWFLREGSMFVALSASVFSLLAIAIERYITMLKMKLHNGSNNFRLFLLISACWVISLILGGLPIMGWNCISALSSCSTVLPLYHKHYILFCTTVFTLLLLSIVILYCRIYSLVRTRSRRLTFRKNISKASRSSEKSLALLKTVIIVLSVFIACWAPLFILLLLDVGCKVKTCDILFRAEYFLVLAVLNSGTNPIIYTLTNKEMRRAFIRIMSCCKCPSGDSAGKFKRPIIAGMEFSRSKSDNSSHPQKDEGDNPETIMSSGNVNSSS
Criterion: IC50 strictly less than 6 nM. Met: 1. Not met: 0.

Some solved cases for reference:
| COMPOUND | GROUP |
| --- | --- |
| Cc1cc(-c2noc(/C=C/C3(c4ccc(Cl)cc4)CCCCC3)n2)cc(C)c1OC[C@@H](O)CO | 1 |
| O=C(O)C1CN(Cc2ccc(-c3noc(CCCC4(c5ccc(Cl)cc5)CCCCC4)n3)cc2)C1 | 1 |
| O=C(O)C1CN(Cc2ccc(-c3noc(CCCC4(c5ccc(F)cc5)CCCCC4)n3)cc2)C1 | 1 |
| O=C(O)C1CN(Cc2ccc(-c3noc(/C=C/C4(c5ccc(Cl)cc5)CCCCC4)n3)cc2)C1 | 0 |
| O=C(O)C1CN(Cc2ccc(-c3noc(CCC4(c5cccnc5)CCOCC4)n3)cc2)C1 | 0 |

Hello, I'm reviewing records and need to know if IC50 of Cc1cc(-c2noc(CCC3(c4ccc(F)cc4)CCCCC3)n2)cc(C)c1OC[C@@H](O)CO is below 6 nM. Could you check?
1

Request: O=C(O)C1CN(Cc2ccc(-c3noc(/C=C/C4(c5ccc(C(F)(F)F)cc5)CCCCC4)n3)cc2)C1
0

Request: O=C(O)C1CN(Cc2ccc(-c3noc(COCC4(c5ccc(F)cc5)CCCCC4)n3)cc2)C1
1

Request: O=C(O)C1CN(Cc2ccc(-c3noc(C(F)(F)C(O)C4(c5ccc(Cl)cc5)CC4)n3)cc2)C1 (stereo not drawn)
0

Source of measurements: patent US8822510B2
